test system: Escherichia coli; assay: Antibacterial activity against Escherichia coli MTCC 443 after 12 hrs by microplate reader assay; assay type: functional; conditions: MTCC 443, 12 h
Measured quantity: MIC99

molecular_string=COC(=O)CC[C@@H](C)[C@H]1CC[C@H]2[C@@H]3CC[C@@H]4C[C@H](OC(=O)C[N+]5(C)CCCCC5)CC[C@]4(C)[C@H]3CC[C@]12C subject_of_test="Escherichia coli" result="> 512 µM"
molecular_string=COC(=O)CC[C@@H](C)[C@H]1CC[C@H]2[C@@H]3CC[C@@H]4C[C@H](OC(=O)C[n+]5ccc(N(C)C)cc5)CC[C@]4(C)[C@H]3CC[C@]12C subject_of_test="Escherichia coli" result="> 512 µM"

Form field MIC99, entry `COC(=O)CC[C@@H](C)[C@H]1CC[C@H]2[C@@H]3CC[C@@H]4C[C@H](OC(=O)C[N+]5(C)CCCCC5)CC[C@]4(C)[C@H]3C[C@H](OC(=O)C[N+]3(C)CCCCC3)[C@]12C` : > 512 µM

Form field MIC99, entry `COC(=O)CC[C@@H](C)[C@H]1CC[C@H]2[C@@H]3[C@H](OC(=O)CN)C[C@@H]4C[C@H](OC(=O)CN)CC[C@]4(C)[C@H]3CC[C@]12C` : 64 µM

Form field MIC99, entry `COC(=O)CC[C@@H](C)[C@H]1CC[C@H]2[C@@H]3CC[C@@H]4C[C@H](OC(=O)C[n+]5ccccc5)CC[C@]4(C)[C@H]3CC[C@]12C` : > 512 µM

All values here come from ChEMBL document CHEMBL3621073.
